Experiment: AUC (0 to infinity) in BALB/c mouse at 10 mg/kg, po
Format: ADME, organism-based
Set-up: time infinity, dose 10 mg/kg, route oral
Details: plasma
Readout kind: AUC(0-inf) (ng·h/mL)
Unit ng·h/mL implied. Number only.

Recorded result, `CN(CCc1c[nH]c2ccccc12)C(=O)c1ccc(-c2ccccc2)cc1` , AUC(0-inf): 182

====

Experiment: Volume of distribution at steady state in BALB/c mouse at 1 mg/kg, iv
Assay type: ADME, organism-based
Design: dose 1 mg/kg, route intravenous
Details: in vivo, read-out: Vdss
Readout kind: Vd (L/kg)
Unit L/kg implied. Number only.

Recorded result, `CN(CCc1c[nH]c2ccccc12)C(=O)c1ccc(-c2ccccc2)cc1` , Vd: 1.76

====

Assay: Terminal half life in BALB/c mouse at 1 mg/kg, iv
Assay type: ADME, organism-based
Set-up: dose 1 mg/kg, route intravenous
Conditions: in vivo, read-out: beta t1/2 (converted)
Readout kind: half-life (min)
Unit min implied. Number only.

Recorded result, `CN(CCc1c[nH]c2ccccc12)C(=O)c1ccc(-c2ccccc2)cc1` , half-life: 19.8

====

Target: CYP2C9 (Homo sapiens, UniProt P11712)
Sequence (P11712 whole entry): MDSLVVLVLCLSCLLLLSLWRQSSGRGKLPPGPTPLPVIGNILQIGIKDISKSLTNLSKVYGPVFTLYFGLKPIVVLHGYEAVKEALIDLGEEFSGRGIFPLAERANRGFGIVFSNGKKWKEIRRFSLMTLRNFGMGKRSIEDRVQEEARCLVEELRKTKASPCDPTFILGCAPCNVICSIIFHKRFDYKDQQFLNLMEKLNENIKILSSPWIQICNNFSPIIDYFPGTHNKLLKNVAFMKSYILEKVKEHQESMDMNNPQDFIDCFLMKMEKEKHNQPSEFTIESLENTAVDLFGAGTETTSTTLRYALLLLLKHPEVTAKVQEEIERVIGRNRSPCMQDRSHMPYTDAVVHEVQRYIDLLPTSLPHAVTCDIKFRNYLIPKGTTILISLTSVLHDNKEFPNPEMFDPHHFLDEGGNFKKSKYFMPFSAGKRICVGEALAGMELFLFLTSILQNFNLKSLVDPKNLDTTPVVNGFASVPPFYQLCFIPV
Experiment: Inhibition of human recombinant CYP2C9 at 10 uM
Format: ADME
Readout kind: inhibition at 10 µM (%)
Unit % implied. Number only.

inhibition at 10 µM on CYP2C9 (Homo sapiens, UniProt P11712) for `CN(CCc1c[nH]c2ccccc12)C(=O)c1ccc(-c2ccccc2)cc1` is 51

====

Test: Clearance in BALB/c mouse at 1 mg/kg, iv
Assay type: ADME, organism-based
Parameters: dose 1 mg/kg, route intravenous
Details: in vivo
Readout kind: clearance (mL/min/kg)
Unit mL/min/kg implied. Number only.

Recorded result, `CN(CCc1c[nH]c2ccccc12)C(=O)c1ccc(-c2ccccc2)cc1` , clearance: 88.3

====

Overview of reported IC50 across a group of molecules:
Test: Growth inhibition of mouse BNL-CL2 cells after 48 hrs by MTT assay
Type: functional, cell-based
Settings: BNL CL.2, 48 h
Please append the unit to your numeric answer.

Worked examples follow.
structure_string=CN(CCc1c[nH]c2ccccc12)C(=O)c1ccc(Cl)cc1 readout_kind=IC50 readout_value="29 µM"
structure_string=CN(CCc1c[nH]c2ccccc12)C(=O)c1ccc(C(C)(C)C)cc1 readout_kind=IC50 readout_value="18 µM"

Recorded result, `CN(CCc1c[nH]c2ccccc12)C(=O)c1ccc(-c2ccccc2)cc1` , IC50: 2.6 µM

====

Test: Volume of distribution in BALB/c mouse at 1 mg/kg, iv
Assay type: ADME, organism-based
Design: dose 1 mg/kg, route intravenous
Conditions: in vivo
Readout kind: Vd
Please append the unit to your numeric answer.

Recorded result, `CN(CCc1c[nH]c2ccccc12)C(=O)c1ccc(-c2ccccc2)cc1` , Vd: 2.52 L/kg

====

Test: Growth inhibition of p53 null, pRb+ human Calu1 cells after 48 hrs by MTT assay
Format: functional, cell-based
Settings: Calu-1, 48 h
Readout kind: IC50 (nM)
Unit nM implied. Number only.

Recorded result, O=C1c2ccccc2-[n+]2ccc3c([nH]c4ccccc43)c21 [FASCAPLYSIN CHLORIDE] , IC50: 1300

====

Assay: Cmax in BALB/c mouse at 1 mg/kg, iv
Assay type: ADME, organism-based
Set-up: dose 1 mg/kg, route intravenous
Settings: in vivo
Readout kind: Cmax
Please append the unit to your numeric answer.

Recorded result, `CN(CCc1c[nH]c2ccccc12)C(=O)c1ccc(-c2ccccc2)cc1` , Cmax: 371 ng/mL
